Tested on: HG-3 CLL cells
TEST_NAME: Annexin V/PI apoptotic assay (FACS)
Assay type: cell-based
TEST_PARAMETERS: HG-3, 10 μM, 48 h
MEASURED_ENDPOINT: total apoptosis (%)
Answers are plain numbers, in %.

Worked cases, total apoptosis given:
In [3]: df
Out[3]:
                                   compound  endpoint_unit  number
0  COc1c2ccccc2c(/C=C/[N+](=O)[O-])c2ccccc12 [Compound 19g]              %      54
1  CC(C)c1c2ccccc2c(/C=C/[N+](=O)[O-])c2ccccc12 [Compound 19m]              %      69
2  Cc1c2ccccc2c(/C=C/[N+](=O)[O-])c2ccccc12 [Compound 19i, (E)-9-Methyl-10-(2-Nitrovinyl)Anthracene]              %      70

Hi! Can you tell me total apoptosis for each of these compounds?
1. O=[N+]([O-])/C=C/c1c2ccccc2cc2ccccc12 [Compound 19a, (E)-9-(2-nitrovinyl)anthracene]
2. CCc1c2ccccc2c(/C=C/[N+](=O)[O-])c2ccccc12 [Compound 19l, (E)-9-Ethyl-10-(2-Nitrovinyl)Anthracene]

(A)
93
74
